# subject-of-test: T1, human IL-11Rα (human, UniProt Q14626 23-363, limits assumed)
# T1 construct: Protein coated on ELISA plates and used in solution for BLI; also called hIL-11Rα; hIL-11R
# T1 sequence: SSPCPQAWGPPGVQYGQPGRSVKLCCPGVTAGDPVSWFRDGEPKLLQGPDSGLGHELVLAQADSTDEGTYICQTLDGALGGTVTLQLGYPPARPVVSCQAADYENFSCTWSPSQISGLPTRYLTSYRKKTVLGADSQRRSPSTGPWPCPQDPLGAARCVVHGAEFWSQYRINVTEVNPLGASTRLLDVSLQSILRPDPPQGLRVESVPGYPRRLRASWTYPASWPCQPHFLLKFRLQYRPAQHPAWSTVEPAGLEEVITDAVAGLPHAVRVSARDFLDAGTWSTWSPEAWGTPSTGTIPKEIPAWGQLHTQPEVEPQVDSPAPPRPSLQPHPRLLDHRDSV
# test-summary: BLI (Octet RED96e), mAb on anti-human constant domain (AHC) biosensors, hIL-11R in solution

binder	Kd
mAb23 (antibody, human IgG4, V domains shown, Expressed as human IgG4 (S228P EU)) VH: EVQLLESGGGLVQPGGSLRLSCAASGFTFSKYSMTWVRQAPGKGLEWVSSIVPYGDLTQYADSVKGRFTISRDNSKNTLYLQMNSLRAEDTAVYYCAKGPGWGSFDLWGRGTLVTVSS VL: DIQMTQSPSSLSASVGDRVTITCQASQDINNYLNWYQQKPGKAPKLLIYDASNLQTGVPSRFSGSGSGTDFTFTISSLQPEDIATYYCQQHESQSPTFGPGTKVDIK	< 0.03 nM
mAb21 (antibody, human IgG4, V domains shown, Expressed as human IgG4 (S228P EU)) VH: EVQLLESGGGLVQPGGSLRLSCAASGFTFSHYSMTWVRQAPGKGLEWVSSIVPYGDLTQYADSVKGRFTISRDNSKNTLYLQMNSLRAEDTAVYYCAKGPGWGSFDLWGRGTLVTVSS VL: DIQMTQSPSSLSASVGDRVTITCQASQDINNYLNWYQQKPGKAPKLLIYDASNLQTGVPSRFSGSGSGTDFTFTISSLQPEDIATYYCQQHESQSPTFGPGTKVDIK	< 0.03 nM
mAb31 (antibody, human IgG4, V domains shown, Expressed as human IgG4 (S228P EU)) VH: EVQLLESGGGLVQPGGSLRLSCAASGFTFSVYSMTWVRQAPGKGLEWVSSIVPYGDLTQYADSVKGRFTISRDNSKNTLYLQMNSLRAEDTAVYYCAKGPGWGSFDLWGRGTLVTVSS VL: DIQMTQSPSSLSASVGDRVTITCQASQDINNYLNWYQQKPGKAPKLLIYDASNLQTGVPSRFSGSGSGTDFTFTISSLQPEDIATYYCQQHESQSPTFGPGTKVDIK	< 0.03 nM
